Listed here are compounds together with their documented ΔTm.
METHOD: Binding affinity to DNA dodecamer complex (CGCGAATTCGCG)2 (unknown origin) assessed as change in melting temperature by differential scanning calorimetry
# number only, unit °C dropped from output

COMPOUND	ΔTm (°C)
OC[C@H]1O[C@@H](Oc2cccc(C#Cc3ccc(C#Cc4cccc(C5=NCCN5)c4)cc3)c2)[C@H](O)[C@@H](O)[C@@H]1O	-1.2
O=C(Nc1cccc(Oc2ccccc2)c1)c1ccc(-c2ccc(C(=O)Nc3cccc(C4=NCCN4)c3)cc2)cc1	0.6
O=C(Nc1ccc(C2=NCCN2)cc1)c1ccc(C(=O)Nc2ccc(C3=NCCN3)cc2)c([N+](=O)[O-])c1	3.9
COc1cccc(NC(=O)c2ccc(-c3ccc(C(=O)Nc4cccc(C5=NCCN5)c4)cc3)cc2)c1	5.2
S=C(Nc1cccc(C2=NCCN2)c1)c1ccc(-c2ccc(C(=S)Nc3cccc(C4=NCCN4)c3)cc2)cc1	7.1
O=C(Nc1cccc(C2=NCCCN2)c1)c1ccc(-c2ccc(C(=O)Nc3cccc(C4=NCCCN4)c3)cc2)cc1	10
c1cc2cc(-c3ccc(-c4cc5ccc(C6=NCCN6)cc5[nH]4)cc3)[nH]c2cc1C1=NCCN1	16
N=C(N)c1ccc(OCCCCCOc2ccc(C(=N)N)cc2)cc1 [PENTAMIDINE]	2.7

Shifting focus to the compound that follows.
What measured ΔTm goes with Cn1cc(NC(=O)c2cc(NC(=O)CNC(=N)N)cn2C)cc1C(=O)NCCC(=N)N [NETROPSIN] ?
16
